Origin of the recorded values: patent US20240101674A1

measurement target: T1, cynomolgus monkey PD1 human Fc tagged recombinant protein (cynomolgus monkey, UniProt Q15116 25-170 (human entry), limits assumed)
T1 construct: also called cyno PD1-Fc; cyno PD1; not shown: human Fc tag
T1 chain: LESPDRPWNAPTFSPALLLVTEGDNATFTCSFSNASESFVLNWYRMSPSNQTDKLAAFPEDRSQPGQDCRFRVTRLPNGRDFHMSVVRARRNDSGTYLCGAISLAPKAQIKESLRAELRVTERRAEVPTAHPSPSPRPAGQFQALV
protocol details: direct titration ELISA, IgG1 null on coated PD1-Fc (FIG. 3A)

[
  {
    "binder": "MAB02B03 IgG1 null (antibody, V domains shown, Human IgG1 null format (L234A, L235A, G237A) with human C kappa; only variable domains are tied to the clone) VH: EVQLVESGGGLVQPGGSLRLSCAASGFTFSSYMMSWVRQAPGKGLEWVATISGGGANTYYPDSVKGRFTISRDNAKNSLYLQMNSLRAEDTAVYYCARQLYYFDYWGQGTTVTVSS VL: DIQMTQSPSSLSASVGDRVTITCLASQPLGIWLSWYQQKPGKAPKLLIYTATSLADGVPSRFSGSGSGTDFTLTISSLQPEDFATYYCQQVYSIPWTFGGGTKVEIK",
    "binding result": "binds"
  },
  {
    "binder": "MAB05 IgG1 null (antibody, V domains shown, Human IgG1 null format (L234A, L235A, G237A) with human C kappa; only variable domains are tied to the clone) VH: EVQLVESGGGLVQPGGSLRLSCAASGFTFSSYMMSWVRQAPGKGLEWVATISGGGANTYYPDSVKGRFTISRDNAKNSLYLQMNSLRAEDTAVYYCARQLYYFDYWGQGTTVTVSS VL: DIQMTQSPSSLSASVGDRVTITCLASQPLGIWLSWYQQKPGKAPKLLIYTATSLADGVPSRFSGSGSGTDFTLTISSLQPEDFATYYCQQVSVTPFTFGGGTKVEIK",
    "binding result": "binds"
  },
  {
    "binder": "MAB06 IgG1 null (antibody, V domains shown, Human IgG1 null format (L234A, L235A, G237A) with human C kappa; only variable domains are tied to the clone) VH: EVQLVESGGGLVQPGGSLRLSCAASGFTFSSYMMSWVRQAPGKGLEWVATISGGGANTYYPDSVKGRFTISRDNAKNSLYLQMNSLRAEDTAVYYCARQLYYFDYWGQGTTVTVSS VL: DIQMTQSPSSLSASVGDRVTITCLASQESGIWLSWYQQKPGKAPKLLIYTATSLADGVPSRFSGSGSGTDFTLTISSLQPEDFATYYCQQVSVTPFTFGGGTKVEIK",
    "binding result": "binds"
  }
]
